- target: ScPma1p (Saccharomyces cerevisiae, UniProt P05030)
- Construct: ScPma1p-coated secretory vesicles from S. cerevisiae overexpressing ScPMA1
- Sequence (P05030 whole entry): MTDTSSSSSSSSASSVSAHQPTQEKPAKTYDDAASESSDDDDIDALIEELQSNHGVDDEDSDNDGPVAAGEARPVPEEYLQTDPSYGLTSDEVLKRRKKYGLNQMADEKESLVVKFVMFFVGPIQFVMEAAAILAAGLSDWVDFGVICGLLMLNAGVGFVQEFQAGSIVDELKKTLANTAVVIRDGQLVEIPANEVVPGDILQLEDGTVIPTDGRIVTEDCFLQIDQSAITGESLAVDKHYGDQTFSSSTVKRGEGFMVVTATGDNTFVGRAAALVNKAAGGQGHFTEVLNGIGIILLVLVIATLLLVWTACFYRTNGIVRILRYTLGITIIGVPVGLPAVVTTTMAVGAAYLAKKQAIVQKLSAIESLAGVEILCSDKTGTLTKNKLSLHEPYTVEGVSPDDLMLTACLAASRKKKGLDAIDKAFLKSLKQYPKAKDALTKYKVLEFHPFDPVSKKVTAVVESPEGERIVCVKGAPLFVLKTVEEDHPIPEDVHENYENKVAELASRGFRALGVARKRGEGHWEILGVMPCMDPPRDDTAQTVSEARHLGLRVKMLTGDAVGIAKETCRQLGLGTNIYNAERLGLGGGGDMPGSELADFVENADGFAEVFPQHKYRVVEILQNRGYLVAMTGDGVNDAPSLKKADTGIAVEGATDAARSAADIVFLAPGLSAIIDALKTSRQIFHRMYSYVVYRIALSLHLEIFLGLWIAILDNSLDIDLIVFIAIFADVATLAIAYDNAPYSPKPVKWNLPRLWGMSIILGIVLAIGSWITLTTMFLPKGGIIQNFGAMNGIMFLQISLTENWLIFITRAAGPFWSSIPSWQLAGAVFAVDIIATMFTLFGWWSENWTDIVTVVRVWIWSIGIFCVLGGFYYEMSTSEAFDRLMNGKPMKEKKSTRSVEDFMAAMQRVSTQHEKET
- run description: cell-free vesicle ATPase assay (Pi release)
reported metric: IC50

Which IC50 value belongs to "C[C@H]1Cc2c([nH]c3cc(Cl)c(F)cc23)[C@@]2(N1)C(=O)Nc1ccc(Cl)cc12" ?
0.0811 µM
